# Tested on: Plasmodium falciparum
# method summary: Antimalarial activity against chloroquine, mefloquine, pyrimethamine and atovaquone-resistant Plasmodium falciparum TM90-C2B infected in human A+ erythrocytes after 72 hrs by SYBR Green I assay
# Format: functional, organism-based
parameter measured: EC50

# example entries with known answers
1. COc1ccc2nc(C)c(Cc3ccccc3)c(OC)c2c1 = > 8.52 µM
2. Cc1cc(=O)c2ccccc2[nH]1 = > 62.8 µM
3. COc1c(-c2ccccc2)c(C)nc2ccc(Cl)cc12 = > 8.8 µM
4. COc1cccc2c(=O)c(Cc3ccccc3)c(C)[nH]c12 = > 5.45 µM

EC50 recorded for this compound, `COc1ccc2[nH]c(C)c(-c3ccccc3)c(=O)c2c1` , is > 9.42 µM

EC50 recorded for this compound, `CCCCC#Cc1c(C)[nH]c2ccccc2c1=O` , is > 10.4 µM

EC50 recorded for this compound, `Cc1c(Cc2ccccc2)c(=O)c2cc(Cl)ccc2n1C` , is > 8.4 µM

EC50 recorded for this compound, `Cc1[nH]c2c(Cl)cc(Cl)cc2c(=O)c1-c1ccccc1` , is > 8.22 µM

EC50 recorded for this compound, `COc1ccc2c(OC)c(Cc3ccccc3)c(C)nc2c1` , is > 8.52 µM

EC50 recorded for this compound, `Cc1[nH]c2ccccc2c(=O)c1/C=C/c1ccccc1` , is > 9.08 µM

EC50 recorded for this compound, `Cc1[nH]c2ccccc2c(=O)c1/C=C/C(=O)OC(C)(C)C` , is > 8.35 µM

EC50 recorded for this compound, `Cc1[nH]c2c(Cl)cccc2c(=O)c1-c1ccccc1` , is > 9.27 µM

Cited source: ChEMBL document CHEMBL1255199
